B1: HDV Ribozyme (parent)
chain: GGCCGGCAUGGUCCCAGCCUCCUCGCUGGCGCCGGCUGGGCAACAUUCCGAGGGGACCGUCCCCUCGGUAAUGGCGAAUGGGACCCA

Variants of: B1
Assay: self-cleavage, relative activity (ratio to wild type); higher = more cleavage; co-transcriptional
In this section we review reported self-cleavage values for a set of variants.
Field format: numeric only.

Looking for the measured self-cleavage of U37A G39U , can you help?
0.122

Thanks! And U47G C61G ?
0.554

Thanks! And C13G C30U ?
0.26

Thanks! And G6U C18A ?
0.131

Thanks! And G6U G53C ?
0.494

More entries:
Looking for the measured self-cleavage of G68A G73A , can you help?
0.463

Thanks! And C13G G39U ?
0.0361

Thanks! And G67U U72C ?
0.53

Thanks! And G55A C84U ?
0.741

Thanks! And U47C G81C ?
0.151

Thanks! And A51G G55C ?
0.481

Thanks! And C36A C84G ?
0.208

Thanks! And U9G C64A ?
0.831

This collection of values is drawn from the RNAGym collection of RNA variant scans (doi:10.7554/elife.80360).
